tested on: NCI-H460; assay: NCI tumour cell line growth inhibition, 48 h
The source made the active and inactive calls. No stated cut-off is given here; in the data, active = GI50 up to about 1.1 µM and inactive = higher.
// values below are reported GI50

See these solved cases before continuing.
>  <Molecule>
COc1ccc2c3c([nH]c2c1[N+](=O)[O-])C(C)N(Cc1ccc([N+](=O)[O-])cc1)CC3 (stereo unspecified)

>  <GI50>
11.8 µM (inactive)

$$$$
>  <Molecule>
CNC(=O)NCCN1CC2CCC(CC2)C1

>  <GI50>
> 10 µM (inactive)

$$$$
>  <Molecule>
CCOC(=O)c1c(SCCN2CCCCC2)n(-c2ccccc2)c(=S)n(-c2ccccc2)c1=O

>  <GI50>
33.9 µM (inactive)

$$$$
>  <Molecule>
Cc1ccc([N+](=O)[O-])cc1S(=O)(=O)Nc1ccc(C2=NNC(c3ccccc3O)C2)cc1 (stereo unspecified)

>  <GI50>
25.7 µM (inactive)

$$$$
>  <Molecule>
O=C(O)c1nn(-c2ccc(Cl)cc2)c2c1C(=O)c1ccccc1C2=O

>  <GI50>
62.1 µM (inactive)

$$$$

The record that follows has no GI50 shown yet.
For NCI-H460, give the measured GI50 of the entry NC(Cc1ccc(O)cn1)C(=O)O (stereo unspecified)
> 100 µM (inactive)

* * *

system: A498; experiment: NCI tumour cell line growth inhibition, 48 h
Calls of active or inactive are those of the source. No stated cut-off is given here; in the data, active = GI50 up to about 1.1 µM and inactive = higher.
// values below are reported GI50

See these solved cases before continuing.
>  <Compound>
Cc1cc2c(cc1Cl)SC(NNC(=O)c1ccncc1)=NS2(=O)=O

>  <Target desc>
A498

>  <GI50>
> 10 µM (inactive)

$$$$
>  <Compound>
O=C(O)c1ccccc1/C=N\N=C1NCCN1

>  <Target desc>
A498

>  <GI50>
> 100 µM (inactive)

$$$$
>  <Compound>
O=C(CN1C(=O)CC(c2ccccc2)(c2ccccc2)C1=O)N1CCN(CCO)CC1

>  <Target desc>
A498

>  <GI50>
> 100 µM (inactive)

$$$$
>  <Compound>
O=C(CN1CCCCC1)c1ccc2[nH]c(=O)oc2c1

>  <Target desc>
A498

>  <GI50>
> 100 µM (inactive)

$$$$
>  <Compound>
C=[N+](CNC(=O)CNC(=O)C(Cc1ccc([N+](=O)[O-])cc1)NC(=O)OC(C)(C)C)C(=O)CNC(=O)C(Cc1ccc([N+](=O)[O-])cc1)NC(=O)OC(C)(C)C (stereo not given)

>  <Target desc>
A498

>  <GI50>
30.7 µM (inactive)

$$$$

The record that follows has no GI50 shown yet.
Determine its reported GI50: O=C(ON=C1c2ccccc2C(Br)C(Br)c2ccccc21)c1cc([N+](=O)[O-])cc([N+](=O)[O-])c1 (stereo not given)
17.6 µM (inactive)

* * *

test system: Malme-3M; assay: NCI tumour cell line growth inhibition, 48 h
The source made the active and inactive calls. No stated cut-off is given here; in the data, active = GI50 up to about 1.1 µM and inactive = higher. Square brackets hold non-standard residues; d marks the D form. Peptide text beside a SMILES is read from it. * marks the point of attachment. ξ: configuration not given here. ξW = NC(Cc1c[nH]c2ccccc12)C(=O)O; X29 = O=C(O)[C@H]1CCC[C@H]1N*; ξF = NC(Cc1ccccc1)C(=O)O; Boc = CC(C)(C)OC(=O)*; ξK = NCCCCC(N)C(=O)O; ξT = CC(O)C(N)C(=O)O; tBu = CC(C)(C)*
Answer with one of the outcomes given here: Y (active), N (inactive)

>  <Molecule>
COC(=O)CC1NC(=O)C1C(C)(OC)OC (configuration not stated)

>  <Discrete label>
N

$$$$
>  <Molecule>
CCC(Oc1ccc(OC)c2c1C(=O)CCC2)C(=O)O (configuration not stated)

>  <Discrete label>
N

$$$$
>  <Molecule>
Fc1cc2nc3n(c2cc1F)C(c1c(F)cccc1F)SC3 (configuration not stated)

>  <Discrete label>
N

$$$$
>  <Molecule>
O=C1NC(Cc2c[nH]c3ccccc23)C(=O)N2C(C3CCCCC3)c3[nH]c4ccccc4c3C[C@@H]12 (some centres not stated)

>  <Discrete label>
N

$$$$
>  <Molecule>
CN/C(=N\n1cnnc1)OC

>  <Discrete label>
N

$$$$

Any idea what this test logged for Cc1cc2c(cc1Cl)SC(NNC(=O)c1ccncc1)=NS2(=O)=O ?
N

Any idea what this test logged for CCOC(=O)c1cn2c(n1)sc1cc(OC)ccc12 ?
N

Any idea what this test logged for CC[C@]12C=CCN3CCC4(c5cc([C@@]6(C(=O)OC)CC7CN(CCc8c6[nH]c6ccccc86)C[C@@H]6CCC[C@H]76)c(OC)cc5N(C)C4[C@](O)(C(=O)OC)C1OC(C)=O)C32 (some centres not stated) ?
Y

Any idea what this test logged for CC(OC(C)(C)C)C(NC(=O)C(CCCCNC(=O)OC(C)(C)C)NC(=O)C(Cc1c[nH]c2ccccc12)NC(=O)C(N)Cc1ccccc1)C(=O)NC(Cc1ccccc1)C(=O)N[C@@H]1CCC[C@@H]1C(=O)O (some centres not stated) (H-[ξF][ξW][ξK](Boc)[ξT](tBu)[ξF]-X29) ?
N

Any idea what this test logged for C=C1CC[C@H](O)C(C)(C)[C@@H]1CC/C(C)=C/CC/C=C(\C)CC/C=C(\C)CCC=C(C)C ?
N

Any idea what this test logged for CC(C)CC1NC(=O)CCC(NC(=O)C(Cc2ccc(O)cc2)NC(=O)OCc2ccccc2)C(=O)NC(Cc2ccccc2)C(=O)NC(Cc2ccccc2)NC1=O (configuration not stated) ?
N

Any idea what this test logged for O=c1c2ccccc2nc(-c2ccccc2)n1NCC1(O)OCC(O)C(O)C1O (configuration not stated) ?
N

Any idea what this test logged for C1=C(c2ccccc2)NC2=N[C@H]3CCCC[C@@H]3N2C1c1ccccc1 (some centres not stated) ?
N

Any idea what this test logged for CCOC(=O)C(Cl)(NC(=O)c1ccc(F)cc1)C(F)(F)F (configuration not stated) ?
N

Any idea what this test logged for O=C(Nc1cccc(Cl)c1)C(=O)C(C(=O)c1ccc2ccccc2c1)C1OC(=O)c2ccccc21 (configuration not stated) ?
N

Any idea what this test logged for CNC(=O)NCCN1CC2CCC(CC2)C1 ?
N

Any idea what this test logged for COc1cc(/C=C/c2csnn2)cc(OC)c1OC ?
N
